Target: CIB1 and αIIb interaction (CIB1-GST : F-αIIb peptide) (Homo sapiens)
Construct: made in house; host or cells: BL-21 plus RIL cells (E. coli)
Sequence (Q99828 1-191): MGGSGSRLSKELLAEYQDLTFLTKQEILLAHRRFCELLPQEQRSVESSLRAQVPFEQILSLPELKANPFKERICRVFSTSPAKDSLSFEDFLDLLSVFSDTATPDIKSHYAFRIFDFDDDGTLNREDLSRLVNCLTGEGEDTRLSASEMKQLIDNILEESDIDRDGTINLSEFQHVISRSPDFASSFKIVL
Assay: FP assay, 1536-well qHTS format (primary and confirmatory screen)
Type: binding
Details: read-out: CONFIRMATORY SCREEN IC50
Measure: pIC50
Schema: pIC50 number; meaning minus log10 of the concentration expressed in molar units.

Which pIC50 is listed for CC[P](CC)(CC)=[Au][S][C@@H]1O[C@H](COC(C)=O)[C@@H](OC(C)=O)[C@H](OC(C)=O)[C@H]1OC(C)=O ? 4.50
